- experimentSummary: AUC in mouse at 30 mg/kg, po
- Type: ADME, organism-based, Plasma
- Parameters: dose 30 mg/kg, route oral
- particulars: plasma

# structure, AUC
data = [
    ("O=C(O)C[C@@H]1c2ccc(C(F)(F)F)nc2NCCN1C(=O)Cc1cccc(O)c1", "1230 ng·h/mL"),
]
